# assay.target: Torsin-1A-interacting protein 2 (Homo sapiens)
# test.summary: small molecules binding lysate-expressed LULL1 – cell lysate, human LULL1 lysate, 635/667 nm fluorescence, primary screen (AID 1092);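 further: probe is lysate of COS7 cells overexpressing human LULL1; score merges per-feature 667 nm fluorescence with signal-to-noise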
# assay.setup: small-molecule microarray, hLULL1 lysate binding, 635 nm fluorescence; higher = more signal
Label yes when composite z-score is at or above 3; anything below gets no.

Worked examples follow.
compound	qualitative.label
NC(=O)NCC#Cc1ccc2c(c1)[C@]1(C(=O)N2)[C@H](c2ccc(O)cc2)N2[C@H](c3ccccc3)[C@H](c3ccccc3)OC(=O)[C@H]2[C@@H]1C(=O)NC[C@H](O)c1ccccc1	no
CCCc1cc2c(n1Cc1ccc(OC)cc1)C(C)C1CN(C(=O)c3ccccc3)C(C)(C(=O)OC)C21 (stereo unspecified)	yes
Cc1cc(C)c(C(O)C2C=CC3C(=O)N(c4ccccc4)C(=O)C3N2Nc2ccc([N+](=O)[O-])cc2)c(C)c1 (stereo unspecified)	yes
COc1ccc([Si](C)(C)[C@H]2[C@H](CCn3cc(CCO)nn3)O[C@@]3(C(=O)N(Cc4cccc(N5C(=O)c6cccc7cccc5c67)c4)c4ccccc43)[C@@H]2C)cc1	no

Kindly determine if composite z-score recorded for CCN(CC)c1ccc(N2CC=CC34O[C@@H]5/C=C\CCCOC(=O)C5[C@H]3C(=O)N(CCCCCCO)[C@@H]4C2=O)cc1 (stereo partly specified) is above or exactly 3.
yes

* * *

# test.summary: forskolin-driven CRE-LacZ activity in PC12 – cell-based, CRE-LacZ reporter, forskolin-stimulated, primary screen (AID 1146);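 further: PC12 cells with 6xCRE LacZ reporter stimulated by forskolin 10 µM; beta-galactosidase reporter signal reflecting CREB driven transcription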
# assay.setup: luminescence, 4.5 h, higher = more signal, called active from +8 up or from −8 down
Overview of reported z-score across a group of molecules:
The answer should be a number; do not append a unit.

Worked examples, 5 molecules total:
molecule	z-score
C=CCC(OC(C)=O)[C@@H]1[C@@H](N(Cc2cc3ccccc3o2)C(=O)Cc2ccc(OC)cc2)c2cc(OCCCO)ccc2N1C(=O)c1ccc(-c2ccccc2)cc1 (some centres not stated)	-0.362
CC(=O)NCCCC[C@@H]1NC(=O)[C@@H]2C[C@H](C(=O)NCCCC[N+](C)(C)C)[C@H](c3cccc(OCCO)c3)N2C1=O	-0.441
C=CC[C@]1(C(=O)N(C)C)N=C(c2ccc(OCCCO)cc2)O[C@H]1c1ccccc1	-1.19
COCCOC(=O)N1C(=O)[C@@]2(c3cc(C#CCCO)ccc31)[C@H](C(=O)NC[C@H](O)c1ccccc1)[C@H]1C(=O)O[C@H](c3ccccc3)[C@H](c3ccccc3)N1[C@@H]2c1ccccc1OCCO	0.172
C#CCOC(=O)N[C@H](C=CCCCC)c1ccccc1	0.488

Determine its reported z-score: "OCc1ccc(-c2cc[n+](Cc3cccc(OC(F)(F)F)c3)cc2)cc1"
-0.119

Provide z-score value for the following molecule: "COCCCNC(=O)[C@@]1(C)c2ccccc2C(=O)N(c2ccc(C)cn2)[C@H]1c1ccc(CO)cc1"
0.208

* * *

# composite z-score annotations
# test.summary: small molecules captured by biotinylated probe aFST – biochemical, small-molecule microarray, fluorescence 635/667, stem cell growth factor project, primary screen (AID 1086);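 further: score merges 667 nm fluorescence with signal-to-noise of each printed compound spot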
# assay.setup: higher = more signal
Please give only the number in your answer, with no unit.

compound	composite z-score
COc1ccccc1CN1C(=O)c2ccccc2[C@@]2(Cc3ccccc3N(C3CC3)C2=O)[C@@H]1c1ccc(CO)cc1	0.0845
COC(=O)C(CC#Cc1ccc2c(c1)[C@]1(C(=O)N2)[C@H](c2ccccc2OCCO)N2[C@H](c3ccccc3)[C@H](c3ccccc3)OC(=O)[C@H]2[C@@H]1C(=O)Nc1nc2ccccc2s1)C(=O)OC	0.446
NC(=O)[C@@H]1[C@H]2C(=O)O[C@H](c3ccccc3)[C@H](c3ccccc3)N2[C@H](c2ccccc2OCCO)[C@@]12C(=O)Nc1ccc(C#CCCO)cc12	-0.0579
CC(C)C[C@@H]1NC(=O)[C@@]23C(=O)N[C@@H](Cc4ccccc4)C2[C@H](C)[C@@]2(C)O[C@H]2C3/C=C/C/C=C\CNC(=O)[C@@H]2CCCN2C1=O (stereo not given in full)	0.0833
COc1ccc(C#Cc2ccc3c(c2)[C@]2(C(=O)N3)[C@H](C(=O)O)[C@H]3C(=O)O[C@H](c4ccccc4)[C@H](c4ccccc4)N3[C@@H]2c2ccc(OCCO)cc2)cc1	0.794

Identify composite z-score associated with the compound "C[C@H]1ON(c2ccccc2)[C@@H](c2ccccc2)[C@@H]1C(=O)N1C(=O)OC[C@@H]1c1ccccc1"
0.0477

Return reported composite z-score. Input compound: "CC(C)(C)OC(=O)CC[C@]1(C(=O)N2CCCCC2)N=C(c2ccc(OCCCO)cc2)O[C@H]1c1ccccc1CN=[N+]=[N-]"
0.821

Identify the reported composite z-score for the following entry. "C=C(C(=O)CC[C@H](OC(=O)c1cccnc1)c1ccc(OCCO)cc1)C(C)C"
0.995

Return value of composite z-score for input "[N-]=[N+]=NCc1ccccc1C[C@]1(C(=O)NCCN2CCOCC2)COC(c2ccc(OCCCO)cc2)=N1" , no commentary.
0.817

Using known records, supply composite z-score for "O=[N+]([O-])c1ccc(C[n+]2ccc(-c3ccc(CO)cc3)cc2)o1"
0.273

Assign composite z-score to the following record: O=C1c2ccccc2C(=O)C2CC([C@H]3Oc4ccccc4S(=O)(=O)N4CCC[C@@H]34)=CCC12 (stereo not given in full)
-0.0883

Answer with reported composite z-score of CN1C(=O)C2C=CC(C(O)c3cccc4ccccc34)N(NC(=O)OC(C)(C)C)C2C1=O (stereo not given)
1.4

Find the measured composite z-score of "CN(C)CCCC[C@@H]1NC(=O)[C@H]2C[C@@H](C(=O)NCCCCCCNC(=O)CS)[C@@H](c3ccc(O)cc3)N2C1=O" and report it.
-0.337

State, in one line, measured composite z-score of "C=C[C@@H](O)[C@H]1CC(c2ccccc2)=NO1"
0.266

Using the record for "COC(=O)[C@@]1(Cc2ccccc2N=[N+]=[N-])N=C(c2ccc(OCCCO)cc2)O[C@H]1c1ccccc1" , state its measured composite z-score.
0.0635

* * *

# assay.target: Neurogenic locus notch homolog protein 2 (Homo sapiens)
# test.summary: small molecules binding Notch2 protein – biochemical, small-molecule microarray, 635 nm fluorescence, stem cell growth factors, primary screen (AID 1073)
# assay.setup: higher = more signal
Label scheme for composite z-score: lo: < -0.6; mid: ≥ -0.6 and < 0.6; hi: ≥ 0.6

Which band does "C=C[C@H](C)[C@H](OC(=O)Nc1ccc(SC)cc1)c1ccc(O)c2ccccc12" fall in?
lo

Classify this compound: "C=C(COC)/C(=C/C[C@@H](OC(=O)c1ccncc1)c1cccc(OCCO)c1)c1cc(C(=O)OC)ccc1OC"
mid

Sort "C=C(C(=O)CC[C@H](OC(=O)c1cccnc1)c1ccc(OCCO)cc1)C(C)C" into one of the categories.
mid

Bin this entry: "COC(=O)[C@@]1(Cc2ccccc2)[C@H]2c3cc(C(=O)N4CCCC4)n(Cc4ccc(OC(F)(F)F)cc4)c3C[C@H]2CN1C(=O)c1ccccc1"
hi

Could you tell me which band CC1CC/C=C\[C@H]2OC34C=CCN(Cc5ccccc5)C(=O)[C@H]3N(CCO)C(=O)[C@@H]4C2C(=O)O1 (some centres undefined) belongs to?
lo

Dear colleague, I would appreciate it if you could identify the bin for "COCCOC(=O)N1C(=O)[C@@]2(c3cc(C#CCNC(N)=O)ccc31)[C@H](C(N)=O)[C@H]1C(=O)O[C@H](c3ccccc3)[C@H](c3ccccc3)N1[C@@H]2c1ccc(OCCO)cc1" and reply at your convenience.
hi

Exam item: assign "COc1ccc([Si](C)(C)[C@@H]2[C@@H](CC(=O)N(CCO)Cc3ccccc3)O[C@]3(C(=O)N(C)c4c(Br)cc(C)cc43)[C@H]2C)cc1" to the correct category.
mid

Entry CC(C)C(CO)N1C(=O)[C@@H]2[C@H]3C(=O)OCC=C[C@H]3OC23C=CCN(CCN2CCOCC2)C(=O)[C@@H]13 (some centres undefined) belongs to which category?
lo

Pick a category. Item: C=CCC(OC(C)=O)[C@@H]1[C@@H](N(Cc2cccc3ccccc23)C(=O)Cc2ccc(F)cc2)c2cc(OCCCO)ccc2N1C(=O)Cc1ccc(OC)cc1 (some centres undefined)
mid

For the record CCN(CC)c1ccc(N2CC=CC34O[C@@H]5/C=C\CCCOC(=O)C5[C@H]3C(=O)N(CCCCCO)[C@@H]4C2=O)cc1 (some centres undefined) , report the class its composite z-score corresponds to.
lo

* * *

# test.summary: plasmodial surface anion channel blockers, osmotic lysis – cell-based, P. falciparum Indochina, OD700, 18 h, primary screen (AID 1157)
# assay.setup: P. falciparum Indochina infected erythrocytes, osmotic lysis OD700, 18 h; higher = more signal, called active from +8 up or from −8 down
Entry flag: Criterion met if z-score reaches 0.6; Criterion not met if it does not.

Record excerpt, results attached:
molecule	qualitative.label
CCCC=C(CCC)[C@@H](NS(=O)(=O)CC)c1ccccc1	Criterion met
O=C1O[C@H](c2ccccc2)[C@H](c2ccccc2)N2[C@H]1[C@@H](C(=O)N1CCCCCCC1)[C@]1(C(=O)Nc3ccccc31)[C@H]2c1ccc(O)cc1	Criterion not met
CC(C)C[C@H]1NC(=O)[C@H](C)NC(=O)[C@@]23C(=O)N[C@@H](Cc4ccccc4)C2[C@H](C)[C@@]2(C)O[C@H]2C3/C=C/C/C=C\CNC1=O (stereo not given in full)	Criterion not met

z-score >= 0.6 for "C=C(C(=O)CC[C@H](OC(=O)c1cccnc1)c1ccc(OCCO)cc1)C(C)C" ?
Criterion met

Answer whether z-score of CN1C(=O)C2C=CC(C(O)C3CCCCC3)N(N(c3ccccc3)c3ccccc3)C2C1=O (stereo not given) is greater than or equal to 0.6.
Criterion met

Does "C=CCOc1ccc([C@@H]2CC=C(C(=O)OCC)[C@H](c3cccc(Br)c3)N2S(=O)(=O)c2ccc(C)cc2)cc1" have a reported z-score of at least 0.6?
Criterion not met

Does the molecule "CO[C@H]1O[C@H](CO)[C@@H](OC(=O)Nc2cccc(F)c2)[C@H](OC(=O)Nc2ccc3c(c2)OCO3)[C@H]1OC(=O)Nc1ccc2c(c1)OCO2" have recorded z-score that is 0.6 or more?
Criterion met
